- Test system: Saccharomyces cerevisiae
- ASSAY PROCEDURE: protein stability index of tFT-peptide fusion (C-terminal peptide) (PSI (0-1 scale)); higher = more stable (slower turnover)
- CONDITION DETAILS: genetic background: doa10 deletion; temperature: 30 C
Outcome: Fulfilled for protein stability index of at least 0.3; Not fulfilled for anything lower.

Record excerpt, results attached:
CSSSNRRRYFVL :: Not fulfilled
GVSFLFVGVSLV :: Fulfilled
FLLSFFGLVFFW :: Fulfilled
GTWCLAMARFCA :: Fulfilled
VGVLWALIVGVR :: Not fulfilled

Attention now shifts to the item below.
Decide: is the reported value of protein stability index for `VSWSVSALIYLK` equal to or greater than 0.3?
Fulfilled

====

- Tested on: Saccharomyces cerevisiae
- ASSAY PROCEDURE: protein stability index of tFT-peptide fusion in wild type (PSI (0-1 scale)); higher = more stable (slower turnover)
- CONDITION DETAILS: genetic background: wild type
Outcome: True for protein stability index of at least 0.2; False for anything lower.

AITLPMCSLLLR :: True
PDKRNHLAKLLN :: False
KKHKKGQKQKIC :: False

Decide: is the reported value of protein stability index for `VRGAVGTWRLVG` equal to or greater than 0.2?
False

Decide: is the reported value of protein stability index for `PDKRNHLGKLLN` equal to or greater than 0.2?
True

Decide: is the reported value of protein stability index for `ARWRVGLWPGAS` equal to or greater than 0.2?
True

====

- Test system: Saccharomyces cerevisiae
- ASSAY PROCEDURE: protein stability index of tFT-peptide fusion (C-terminal peptide) (PSI (0-1 scale)); higher = more stable (slower turnover)
- CONDITION DETAILS: genetic background: cdc53-1; temperature: 37 C
Please provide measured protein stability index for the entries that follow.
Give bare numbers.

Example results:
SCGVYVVFVLVE :: 0.133
FLSPPPFLALLP :: 0.758
LLLPSAPFLFLL :: 0.256
GRTDFSTLLLIC :: 0.691
SRGLVPMANRYC :: 0.738

// for each sequence in input: emit protein stability index
1. THRAVGIGLRCC
2. VVRVIWCQFSCF
3. VCTFLLVSFFLS

[0.637, 0.545, 0.315]

// for each sequence in input: emit protein stability index
1. GWVSCCVWSFLV
2. SLFDQDCGGTVW
3. LCTCFLVLLLWC

0.592
0.78
0.404

State its protein stability index for this sequence: `GGGGVFGVWVWM`
0.618

====

- Tested on: Saccharomyces cerevisiae
- ASSAY PROCEDURE: protein stability index of tFT-peptide fusion (C-terminal peptide) (PSI (0-1 scale)); higher = more stable (slower turnover)
- CONDITION DETAILS: genetic background: wild type; temperature: 30 C
PARAMETER MEASURED: protein stability index
Numbers only.

RPRVETGGLPWV :: 0.703
FSSWPFFSFYLS :: 0.518
RGQSGSLSKLLG :: 0.72
GRDPARPRPLAP :: 0.677
RPPYIALAPSDR :: 0.694
FLGGDVVGVFVG :: 0.658
FNSFPPSPSLRP :: 0.729
APDRGWAEGQCS :: 0.727

// for each sequence in input: emit protein stability index
1. RERTNKKLAKDK
2. SRWTLRTSMDLG
3. GRRLVHKVDWSL
4. GLGACMVNELLG
5. LSSADSVVSSVV

1: 0.656; 2: 0.616; 3: 0.666; 4: 0.648; 5: 0.696

// for each sequence in input: emit protein stability index
1. PRGALMKGYKPG
2. PPLPLPSPRPPP
3. SVRHPPWDHRPP
4. LQSVAFERGGPD
5. WRELGCFGVRGD
6. PDPSTRASDRKR

0.663
0.619
0.571
0.727
0.732
0.648
